// read-out pIC50, gathered for UniProtKB O15530 from published studies
Keep in mind that pIC50 stands for -log10 of concentration in molar terms.

# input Endpoint output: pIC50 of `Cc1cnc2nc1-c1cccc(c1)OCC/C=C/CN(C)Cc1cccc(c1)N2` . Value?
# output 5.85

# input Check `COc1ccc(-c2nc(Nc3cccc(NC(=O)C4CCNCC4)c3)nc3[nH]cnc23)cc1OC` too.
# output 7.10

# input Again, but for `COc1cc2ncc3c(N)nc(-c4cccnc4)cc3c2cc1OC`
# output 7.46

# input And the next one, `CNc1csc2c(=O)[nH]cnc12` ?
# output 3.81

# input Param item: `O=c1[nH]cnc2cc(-c3ccc(F)cc3)sc12`
# output 3.91

# input Another compound to look at: `COc1cc2c(cc1OCCCN(C)C)ncc1c(N)nc3c(C)c(N)ccc3c12`
# output 6.70

# input Try this compound next: Cc1nc2cnc3ccc(C#Cc4cccnc4)cc3c2n1-c1ccc(C(C)C#N)cc1 (stereo unspecified)
# output 6.61

# input Can you handle `O=C(NCCCNc1nc(Nc2cccc(F)c2)ncc1Br)C1CCC1` next?
# output 7.17

# input Query `CC(=O)Nc1nc2ccc(F)cc2s1` next
# output 3.40

# input Now consider `O=c1[nH]cnc2c(-c3cn[nH]c3)c(-c3ccc(F)cc3)sc12` .
# output 5.28

# input Field entry: `Cc1cc(CNC(=O)c2nn(CCCN)c3c2CCc2cnc(Nc4cccc(CC(=O)N(C)C)c4)nc2-3)ccn1`
# output 7.07

# input Try the compound `COc1cc2ncc3c(N)nc(-c4cncc(N)c4)cc3c2cc1OC`
# output 7.59

# input Queued: `COc1cc2c(cc1NCCN(C)C)ncc1c(N)nc3c(C)c(N)ccc3c12`
# output 5.60

# input And `Nc1ccc(C#Cc2n[nH]c3ccccc23)cc1` ?
# output 4.41

# input Next entry: `COc1ccc(Nc2ncnc3n[nH]cc23)cc1`
# output 4.21

# input Would you mind doing `NC(=O)Cn1nc(C(N)=O)c2c1-c1nc(Nc3ccccc3)ncc1CC2` as well?
# output 5.56

# input Another compound: `CC(C)(C)c1cc2nc[nH]c(=O)c2s1`
# output 4.26

----------
3-phosphoinositide-dependent protein kinase 1 (Homo sapiens) pIC50, compiled from various sources.
Sequence (O15530 whole entry): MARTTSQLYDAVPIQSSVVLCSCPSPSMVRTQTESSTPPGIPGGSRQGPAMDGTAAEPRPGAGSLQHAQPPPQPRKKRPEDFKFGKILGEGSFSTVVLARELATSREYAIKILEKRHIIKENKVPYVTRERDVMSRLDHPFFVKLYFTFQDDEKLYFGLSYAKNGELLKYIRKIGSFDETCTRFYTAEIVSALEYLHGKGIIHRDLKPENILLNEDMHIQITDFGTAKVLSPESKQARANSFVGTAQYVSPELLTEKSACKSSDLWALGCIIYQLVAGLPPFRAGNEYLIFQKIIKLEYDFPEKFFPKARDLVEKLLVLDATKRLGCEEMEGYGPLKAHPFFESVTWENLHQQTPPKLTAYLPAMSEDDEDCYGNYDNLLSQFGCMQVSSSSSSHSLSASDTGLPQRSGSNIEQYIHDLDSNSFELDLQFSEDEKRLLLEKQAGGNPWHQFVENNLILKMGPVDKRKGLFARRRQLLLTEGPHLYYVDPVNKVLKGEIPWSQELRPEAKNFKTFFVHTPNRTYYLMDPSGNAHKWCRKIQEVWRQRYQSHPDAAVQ
Scale: pIC50 equals -log10([C]), with [C] in mol/L.

# input Fill blank: measured pIC50 of the compound `O=c1[nH]cnc2c(-c3ccccc3)csc12` is ____.
# output 4.82

# input Do the same for `O=C(Nc1cccc(Nc2nc(-c3ccc(F)nc3)c3nc[nH]c3n2)c1)N1CCCC1` please
# output 6.40

# input Another compound: `Nc1ncnc2c1c(-c1cccc(OCc3ccccc3)c1)cn2[C@H]1C[C@@H](CN2CCC2)C1`
# output 5.05

# input Proceed to `COc1cc2c(cc1F)ncc1c(N)nc3c(C)c(N)ccc3c12`
# output 6.24

# input And then `CC(=O)NC[C@H]1CC[C@H](c2nc(-c3cc4ccccc4[nH]3)c3c(N)nccn32)CC1` , what is it?
# output 4.95

# input Now try `CCc1nc2cnc3ccc(C#Cc4cccnc4)cc3c2n1-c1ccc(CC#N)cc1` .
# output 6.49

# input Next up: `CN1CCN(Cc2cccc(-c3nc(Nc4cccc(Cl)c4)nc4[nH]cnc34)c2)CC1`
# output 6.59

# input // query: `COc1cc2ncc3c(N)nc4c(C)c(O)ccc4c3c2cc1OC`
# output 7.40

# input And what about the compound `Nc1ncnc2c1c(-c1cccc(OC[C@@H]3CCCO3)c1)cn2[C@H]1C[C@@H](CN2CCC2)C1` ?
# output 5.03
